Reported protein stability index values for a set of variants
B1: TFE3 (parent)
chain: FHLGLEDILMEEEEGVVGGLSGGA

variants of: B1; assay: protein stability index of a GFP-peptide fusion (GPS, HEK-293T) (PSI 1-6); higher = more stable; conditions: c terminus: a fixed tail appended;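 also: lentivirally expressed fusions sorted by FACS into six bins by GFP to DsRed ratio, PSI derived from sequencing read proportions per bin multiplied by bin number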
measured_attribute: protein stability index

• M10T = 3.88
• G15K = 4.11
• G22V = 3.9
• D7L = 2.16
• H2D = 4.81
• G22Y = 2.28
• F1N = 5.56
• G15P = 3.59
• E11F = 2.09
• G4M = 2.5
• E13I = 1.88
• V16E = 4.3
• I8T = 3.88
• F1K = 5.06
• H2F = 3.15
• G23M = 3.19
• F1V = 4.56
• G19M = 3.71
• H2M = 4.29
• G4Y = 1.86
• L3V = 4.14
• I8P = 4.89
• V17P = 3.63
• E12W = 1.76
• S21E = 4.65
• H2V = 2.75
• L5C = 4.36
• E14T = 3.25
• E11V = 2.67
• G19F = 2.69
• L20Q = 4.47
• F1R = 4.44
• V17G = 3.15
• G19L = 3.25
• G22F = 3.34
• M10S = 4.08
• V17S = 4.13
• G23C = 3.21
• E13V = 2.46
• D7Q = 3.19
• G23H = 3.43
• G18V = 3.93
• S21A = 3.9
• L3A = 4.52
• E12A = 2.6
• E11H = 2.73
• I8H = 4.01
• V16T = 4
• S21V = 3.81
• A24M = 3.12
• S21R = 3.7
• L9D = 4
• E6R = 3.3
• E13F = 1.84
• L9I = 3.7
• L3S = 3.5
• G18K = 2.99
• F1I = 4.57
• E12M = 2.29
• G4I = 2.1
• D7M = 1.65
• G22D = 3.5
• F1S = 4.96
• E12T = 3.72
• E11Y = 2.38
• E13P = 2.41
• F1C = 4.89
• S21C = 3.48
• G22T = 4.26
• D7K = 2.77
• V17W = 2.72
• S21I = 3.27
• G23W = 2.15
• I8Q = 4.28
• A24Q = 4.24
• E12H = 3.09
• G4E = 4.89
• L5H = 3.91
• G23I = 3.17
• E6G = 2.58
• I8S = 4.28
• D7C = 2.34
• M10Y = 3.62
• M10F = 3.83
• G15H = 3.25
• G4W = 2.67
• L20N = 4.59
• G18Q = 4.23
• G4A = 2.97
• L3R = 4.14
• A24H = 3.25
